Assay: Pharmacokinetics of sinomenine in rat plasma after oral administration of sinomenine monomer and Sinomenium acutum extract
Details: male, Wistar, 60 mg/kg
property_label: Cmax (ng/mL)

COC1=C[C@H]2[C@H]3Cc4ccc(OC)c(O)c4[C@@]2(CCN3C)CC1=O : 11600

---

Assay: Pharmacokinetics of sinomenine in rat plasma after oral administration of sinomenine monomer and Sinomenium acutum extract
Settings: male, Wistar, 30 mg/kg
property_label: AUC(0-inf) (ng·h/mL)

COC1=C[C@H]2[C@H]3Cc4ccc(OC)c(O)c4[C@@]2(CCN3C)CC1=O : 32800

---

Assay: Pharmacokinetics of sinomenine in rat plasma after oral administration of sinomenine monomer and Sinomenium acutum extract
Details: male, Wistar, 60 mg/kg
property_label: half-life

COC1=C[C@H]2[C@H]3Cc4ccc(OC)c(O)c4[C@@]2(CCN3C)CC1=O : 5.77 h

---

Assay: Pharmacokinetics of sinomenine in rat plasma after oral administration of sinomenine monomer and Sinomenium acutum extract
Details: male, Wistar, 30 mg/kg
property_label: half-life (h)

COC1=C[C@H]2[C@H]3Cc4ccc(OC)c(O)c4[C@@]2(CCN3C)CC1=O : 4.88
